Form: system (Epidermal growth factor receptor (Homo sapiens, UniProt P00533)), quantity (IC50), values below.

// worked examples, IC50 included
COc1cc2nc(C)nc(N[C@H](C)c3cccc(S(N)(=O)=O)c3)c2cc1OC ... > 20000 nM
COc1cc2nc(C)nc(N[C@H](C)c3cccc(C(F)(F)F)c3)c2cc1OC ... > 20000 nM
COc1cc2nc(C)nc(N[C@H](C)c3ccccc3)c2cc1OC ... 2800 nM

IN: Provide one value: measured IC50 of `COc1cc2ncnc(N[C@H](C)c3ccccc3)c2cc1OC`
OUT: 1 nM

----------
Target: Son of sevenless homolog 1 (Homo sapiens)
Sequence (Q07889 whole entry): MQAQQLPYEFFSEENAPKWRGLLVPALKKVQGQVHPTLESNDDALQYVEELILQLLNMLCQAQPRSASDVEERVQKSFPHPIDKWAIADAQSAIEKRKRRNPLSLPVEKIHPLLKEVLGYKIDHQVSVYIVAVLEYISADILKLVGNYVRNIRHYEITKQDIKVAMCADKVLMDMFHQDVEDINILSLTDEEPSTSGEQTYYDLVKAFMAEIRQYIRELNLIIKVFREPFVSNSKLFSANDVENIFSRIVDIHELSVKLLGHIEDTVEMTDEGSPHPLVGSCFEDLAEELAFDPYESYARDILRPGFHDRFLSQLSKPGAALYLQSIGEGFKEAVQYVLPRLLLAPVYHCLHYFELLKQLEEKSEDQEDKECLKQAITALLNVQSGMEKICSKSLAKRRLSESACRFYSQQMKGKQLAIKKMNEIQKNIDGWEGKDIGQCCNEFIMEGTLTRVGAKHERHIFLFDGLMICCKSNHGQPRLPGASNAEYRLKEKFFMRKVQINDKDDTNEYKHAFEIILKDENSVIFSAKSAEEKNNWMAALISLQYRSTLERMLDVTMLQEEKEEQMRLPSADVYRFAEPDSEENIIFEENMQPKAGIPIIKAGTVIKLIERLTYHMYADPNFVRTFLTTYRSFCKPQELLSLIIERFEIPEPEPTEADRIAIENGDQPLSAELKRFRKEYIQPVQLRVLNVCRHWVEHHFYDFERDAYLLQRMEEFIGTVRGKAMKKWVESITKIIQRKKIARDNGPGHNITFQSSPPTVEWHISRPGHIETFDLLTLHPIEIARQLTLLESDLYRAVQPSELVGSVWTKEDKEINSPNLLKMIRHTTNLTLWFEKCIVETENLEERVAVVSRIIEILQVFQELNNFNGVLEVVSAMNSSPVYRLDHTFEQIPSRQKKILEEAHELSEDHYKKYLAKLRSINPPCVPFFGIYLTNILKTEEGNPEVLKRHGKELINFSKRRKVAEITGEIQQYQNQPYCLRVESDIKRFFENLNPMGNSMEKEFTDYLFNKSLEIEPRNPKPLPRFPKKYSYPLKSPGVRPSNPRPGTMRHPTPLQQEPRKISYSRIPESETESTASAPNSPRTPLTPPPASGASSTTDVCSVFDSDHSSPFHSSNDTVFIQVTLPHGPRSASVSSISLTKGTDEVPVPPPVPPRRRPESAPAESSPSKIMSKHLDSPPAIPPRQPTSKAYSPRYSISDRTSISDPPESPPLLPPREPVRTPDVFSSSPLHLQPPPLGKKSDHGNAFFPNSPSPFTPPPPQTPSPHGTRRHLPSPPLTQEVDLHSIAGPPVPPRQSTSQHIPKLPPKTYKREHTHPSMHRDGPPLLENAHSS
pKd: −log10 of the molar value.
Decision: pKd >= 7 yields T, all other cases yield F.

Example cases with answers are listed next.
Cc1nc(N[C@H](C)c2cc(N)cc(C(F)(F)F)c2)c2cc(Cl)ccc2n1 ... F
Cc1nc(N[C@H](C)c2cc(N)cc(C(F)(F)F)c2)c2cc(F)ccc2n1 ... F

IN: // inclusive: pKd at least 7? input: `COc1ccc2nc(C)nc(N[C@H](C)c3cc(N)cc(C(F)(F)F)c3)c2c1`
OUT: T

IN: // inclusive: pKd at least 7? input: `COc1cc2nc(C)nc(N[C@H](C)c3ccccc3)c2cc1OC`
OUT: F

IN: // inclusive: pKd at least 7? input: `COc1cc2nc(C)nc(N[C@H](C)c3cc(N)cc(C(F)(F)F)c3)c2cc1OC`
OUT: T
